System: NCI/ADR-RES ovarian
Test: NCI-60 one-dose screen, 48 h (100 = growth as untreated, 0 = no growth, -100 = all killed)
Details: 10 µM unless noted
This is part of a sample that, as a whole, favours compounds with a hit. Of some 83,000 tested, about 20% had one in any assay.
Each record is given T if its reported growth is strictly below 20%. Records at or above 20% are given F.

QUERY: growth under 20%? Item: "Nc1cc2ccccc2c(=O)n1NC(=O)c1ccc(Br)cc1"
RESULT: F

QUERY: growth under 20%? Item: "C[C@@H]1[C@H]2C[C@@H](C[C@H]1NCc1nc3ccccc3n1C1CCCCCC1)C2(C)C"
RESULT: F
